Tested on: MiaPaca-2 cells
Test: MiaPaca-2 Cell Proliferation Assay
Assay type: cell-based
Conditions: Homo sapiens, MIA PaCa-2, MiaPaca-2 cells; Table 2; read-out: Inhibition of cell proliferation in MiaPaca-2 (IC50 class)
pIC50: −log10 of the molar value.
Measured Quantity: pIC50

smiles_record=Cc1ccc(NC(=O)c2cc(C(C)(F)F)cnn2)cc1-c1cc(NCCO)nc(-c2ccnc(NC(=O)C3CC3)c2)c1 measurement="6.30 to 7.00"

[ask] What value of pIC50 has been reported for the following compound? `Cc1ccc(NC(=O)c2ccc(C(F)(F)F)nn2)cc1-c1ccnc(-c2ccnc(NC(=O)C3CC3)c2)c1`
[reply] 6.30 to 7.00

[ask] # query: pIC50 of entry `Cc1ccc(NC(=O)c2cnc(C(F)(F)F)cn2)cc1-c1ccnc(-c2ccnc(NC(=O)C3CC3)c2)c1`
[reply] 6.00 to 6.30

[ask] What does the data say about its pIC50? Entry: `Cc1ccc(NC(=O)c2cc(C(F)(F)F)cnn2)cc1-c1ccnc(-c2ccnc(NC(=O)CC3CC3)c2)c1`
[reply] 6.30 to 7.00

----------
# pIC50 per record follows
Tested on: MiaPaca-2 cells
Experiment: MiaPaca-2 Cell Proliferation Assay
Assay type: cell-based
Settings: Homo sapiens, MIA PaCa-2, MiaPaca-2 cells; Table 2; read-out: Inhibition of cell proliferation in MiaPaca-2 (IC50 class)
pIC50: −log10 of the molar value.

smiles_record=Cc1ccc(NC(=O)c2cccnn2)cc1-c1ccnc(-c2ccnc(NC(=O)C3CC3)c2)c1 measurement="5.00 to 6.00"
smiles_record=Cc1ccc(NC(=O)c2cncc(C(C)(C)C#N)c2)cc1-c1ccnc(-c2ccnc(NC(=O)C3CC3)c2)c1 measurement="6.30 to 7.00"
smiles_record=Cc1ccc(NC(=O)c2cc(C(F)(F)F)cnn2)cc1-c1cc(N[C@H](C)CO)nc(-c2cn[nH]c2)c1 measurement="> 7.00"
smiles_record=Cc1ccc(NC(=O)c2cc(C3CCC3)cnn2)cc1-c1ccnc(-c2ccnc(NC(=O)C3CC3)c2)c1 measurement="> 7.00"

[ask] What value of measured pIC50 is listed for `Cc1ccc(NC(=O)c2cncc(C(F)(F)F)c2)cc1-c1ccnc(-c2ccnc(NC(=O)C3CC3)c2)c1` ?
[reply] 6.00 to 6.30

[ask] Suppose we examine the molecule `CC(=O)Nc1cc(-c2cc(-c3cc(NC(=O)c4ccc(C(F)F)nc4)ccc3C)ccn2)ccn1` ; what pIC50 value has been reported?
[reply] > 7.00

[ask] Dear colleague, I am looking for the recorded pIC50 of the following molecule: `COCC(=O)Nc1cc(-c2cc(-c3cc(NC(=O)c4cc(C(F)(F)F)cnn4)ccc3C)ccn2)ccn1`
[reply] > 7.00

----------
Below, each entry is listed with its recorded IC50.
Target: B-Raf kinase (SEQ ID NO: 1) (Homo sapiens, UniProt P15056)
Construct: GST (N); purchased Sigma
Sequence (P15056 416-766): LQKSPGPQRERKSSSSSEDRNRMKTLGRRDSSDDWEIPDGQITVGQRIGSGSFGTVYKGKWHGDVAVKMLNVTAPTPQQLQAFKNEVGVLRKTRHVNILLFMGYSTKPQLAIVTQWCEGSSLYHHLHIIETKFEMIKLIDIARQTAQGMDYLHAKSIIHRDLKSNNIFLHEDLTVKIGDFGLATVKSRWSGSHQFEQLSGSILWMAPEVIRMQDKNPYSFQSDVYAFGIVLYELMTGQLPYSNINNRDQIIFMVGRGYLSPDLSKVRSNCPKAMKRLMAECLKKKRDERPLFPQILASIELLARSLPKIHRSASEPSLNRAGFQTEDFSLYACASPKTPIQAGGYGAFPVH
Assay: Biochemical Assay for B-Raf (coupled pyruvate kinase/lactate dehydrogenase assay)
Details: 1 mM ATP; read-out: BRAF (inhibition of biochemical activity, IC50)

Take a look at these entries with their results.
smiles_record=COC(=O)Nc1cc(-c2ccnc(-c3cc(NC(=O)c4ccc(C(F)(F)F)nc4)ccc3C)n2)ccn1 measured_quantity=IC50 measurement="< 100 nM"
smiles_record=Cc1ccc(NC(=O)c2cc(C3CC3)cnn2)cc1-c1ccnc(-c2cnsc2)c1 measured_quantity=IC50 measurement="100 to 500 nM"
smiles_record=Cc1ccc(NC(=O)c2ccc(C(F)(F)F)nn2)cc1-c1ccnc(-c2ccnc(NC(=O)C3CC3)c2)c1 measured_quantity=IC50 measurement="100 to 500 nM"
smiles_record=Cc1ccc(NC(=O)c2cc(C(F)(F)F)cnn2)cc1-c1ccnc(-c2ccsc2)c1 measured_quantity=IC50 measurement="1000 to 10000 nM"
smiles_record=Cc1ccc(NC(=O)c2cc(C(C)(F)F)cnn2)cc1-c1ccnc(-c2cnn(C)n2)c1 measured_quantity=IC50 measurement="100 to 500 nM"
smiles_record=Cc1ccc(NC(=O)c2cc(C(F)(F)F)cnn2)cc1-c1ccnc(-c2ccnc(NCC(F)(F)F)c2)c1 measured_quantity=IC50 measurement="500 to 1000 nM"

The record that follows has no IC50 shown yet.
[ask] IC50 lookup needed for `Cc1ccc(NC(=O)c2cc(C(F)(F)F)cnn2)cc1-c1ccnc(-c2ccnc(NC(=O)C(F)(F)F)c2)c1` , thanks.
[reply] 100 to 500 nM

----------
# maps each entry to its IC50
Biological target: B-Raf kinase (SEQ ID NO: 1) (Homo sapiens, UniProt P15056)
Construct: GST (N); purchased Sigma
Assay: Biochemical Assay for B-Raf (coupled pyruvate kinase/lactate dehydrogenase assay)
Details: 1 mM ATP; read-out: BRAF (inhibition of biochemical activity, IC50)

smiles_record=Cc1ccc(NC(=O)c2ccc(C(F)(F)F)nc2)cc1-c1cncc(-c2cc(N)ncn2)c1 measured_quantity=IC50 measurement="500 to 1000 nM"
smiles_record=Cc1ccc(NC(=O)c2cc(C(F)(F)F)cnn2)cc1-c1cc(OCCO)nc(-c2ccnc(NC(=O)C3CC3)c2)c1 measured_quantity=IC50 measurement="< 100 nM"
smiles_record=CC(=O)Nc1cc(-c2cccc(-c3cc(NC(=O)c4ccc(C(F)F)nc4)ccc3C)n2)ccn1 measured_quantity=IC50 measurement="100 to 500 nM"

[ask] Give the measured IC50 of `Cc1ccc(NC(=O)c2cc(C3CC3)cnn2)cc1-c1ccnc(-c2ccoc2)c1` .
[reply] 100 to 500 nM

[ask] Need IC50 of `Cc1ccc(NC(=O)c2cc(C(C)(F)F)cnn2)cc1-c1ccnc(-c2cncn2C)c1` , thanks.
[reply] < 100 nM

[ask] Which IC50 is reported for this molecule? `Cc1ccc(NC(=O)c2cc(C(F)(F)F)cnn2)cc1-c1ccnc(-c2ccnc(NC(C)C)c2)c1`
[reply] 1000 to 10000 nM

[ask] Which IC50 is reported for this molecule? `Cc1ccc(NC(=O)c2cc(P(C)(C)=O)cnn2)cc1-c1ccnc(-c2ccnc(NC(=O)C3CC3)c2)c1`
[reply] < 100 nM

[ask] Which IC50 value belongs to `Cc1ccc(NC(=O)c2cc(C(C)(F)F)cnn2)cc1-c1ccnc(-c2ccoc2)c1` ?
[reply] 100 to 500 nM

[ask] Sample `CNc1cc(-c2cc(-c3cc(NC(=O)c4cc(C(F)(F)F)cnn4)ccc3C)ccn2)ccn1` — what was its IC50?
[reply] < 100 nM

----------
Target: Porcine Brain Tubulin (Sus scrofa, UniProt P02550+P02554)
Construct: Porcine Brain Tubulin (T240); purchased Cytoskeleton, Inc T240; BK011P; host or cells: porcine brain (tissue-purified)
Sequence (P02550 whole entry): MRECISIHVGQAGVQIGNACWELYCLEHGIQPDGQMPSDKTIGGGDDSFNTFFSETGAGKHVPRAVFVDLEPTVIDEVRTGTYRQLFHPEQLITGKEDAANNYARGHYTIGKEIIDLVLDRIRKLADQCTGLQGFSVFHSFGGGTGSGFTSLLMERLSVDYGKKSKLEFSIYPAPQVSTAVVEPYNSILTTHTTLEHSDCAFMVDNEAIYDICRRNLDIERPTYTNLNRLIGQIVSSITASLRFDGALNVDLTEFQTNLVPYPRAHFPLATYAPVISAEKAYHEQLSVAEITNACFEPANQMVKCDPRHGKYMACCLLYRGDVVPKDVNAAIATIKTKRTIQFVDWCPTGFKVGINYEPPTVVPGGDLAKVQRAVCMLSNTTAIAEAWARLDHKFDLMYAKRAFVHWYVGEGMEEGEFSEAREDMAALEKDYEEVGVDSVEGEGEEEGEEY
Sequence (P02554 whole entry): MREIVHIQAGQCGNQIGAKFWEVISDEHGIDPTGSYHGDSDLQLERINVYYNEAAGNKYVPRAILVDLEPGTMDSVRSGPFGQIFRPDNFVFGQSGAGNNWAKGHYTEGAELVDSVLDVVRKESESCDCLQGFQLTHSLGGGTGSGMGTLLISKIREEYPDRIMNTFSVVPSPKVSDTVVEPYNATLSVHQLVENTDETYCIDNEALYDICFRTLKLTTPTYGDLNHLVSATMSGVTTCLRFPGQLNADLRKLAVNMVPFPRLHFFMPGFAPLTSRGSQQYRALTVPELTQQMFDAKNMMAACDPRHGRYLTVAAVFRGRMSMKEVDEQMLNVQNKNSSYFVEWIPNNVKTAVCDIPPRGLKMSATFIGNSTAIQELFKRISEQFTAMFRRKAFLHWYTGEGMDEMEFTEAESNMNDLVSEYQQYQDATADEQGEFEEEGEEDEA
Test: Biochemical Tubulin Polymerization Assay
Settings: Table 5, previously disclosed BRAF/CRAF inhibitors; read-out: Tubulin Biochem
pIC50: −log10 of the molar value.
Measured Quantity: pIC50

[ask] Tell me reported pIC50 for Cc1ccc2c(Nc3cccc(Cl)c3F)nccc2c1NC(=O)c1csc2c(N)ncnc12 [Belvarafenib, reference compound] , tested with Porcine Brain Tubulin (Sus scrofa, UniProt P02550+P02554).
[reply] < 4.00

----------
Tested on: MiaPaca-2 cells
Assay: MiaPaca-2 Cell Proliferation Assay
Format: cell-based
Settings: MiaPaca-2 cells; Table 2; read-out: Inhibition of cell proliferation in MiaPaca-2 (IC50 class)
pIC50: −log10 of the molar value.
Measured Quantity: pIC50

Some solved cases for reference:
compound="COC(=O)Nc1cc(-c2nccc(-c3cc(NC(=O)c4ccc(C(F)(F)F)nc4)ccc3C)n2)ccn1 [Example 30]" measurement="5.00 to 6.00"
compound="COC(=O)Nc1cc(-c2cc(-c3cc(NC(=O)c4ccc(C(F)(F)F)nc4)ccc3C)cc(OCCO)n2)ccn1 [Example 77]" measurement="5.00 to 6.00"

Switching to the query record.
[ask] # returns recorded pIC50 (system: MiaPaca-2 cells) for COC(=O)Nc1cc(-c2cncc(-c3cc(NC(=O)c4ccc(C(F)(F)F)nc4)ccc3C)c2)ncn1 [Example 76]
[reply] 5.00 to 6.00

----------
Molecular target: B-Raf kinase (SEQ ID NO: 1) (Homo sapiens, UniProt P15056)
Construct: GST (N); purchased Sigma
Assay: Biochemical Assay for B-Raf (coupled pyruvate kinase/lactate dehydrogenase assay)
Conditions: 1 mM ATP; read-out: BRAF (inhibition of biochemical activity, IC50)
Measured Quantity: IC50

Worked examples follow.
molecule="Cc1ccc(NC(=O)c2cncc(C(C)(C)F)c2)cc1-c1cncc(-c2cc(NC(=O)C3CC3)ncn2)c1 [Example 68]" measurement="< 100 nM"
molecule="Cc1ccc(NC(=O)c2cc(C(F)(F)F)cnn2)cc1-c1cc(N[C@H](C)CO)cc(-c2cc(NC(=O)C3CC3)ncn2)c1 [Example 123]" measurement="< 100 nM"
molecule="Cc1ccc(NC(=O)c2cc(C(F)(F)F)cnn2)cc1-c1ccnc(-c2ccnc(NC(=O)C3CCN(C)C3)c2)c1 (stereo not drawn) [Example 51]" measurement="< 100 nM"
molecule="Cc1ccc(NC(=O)c2cc(C(F)(F)F)cnn2)cc1-c1cncc(-c2cc(NC(=O)C(F)(F)F)ncn2)c1 [Example 125]" measurement="< 100 nM"
molecule="COC(=O)Nc1cc(-c2cc(-c3cc(NC(=O)c4ccc(C(F)(F)F)nc4)c(F)cc3C)nc(C)n2)ccn1 [Example 21]" measurement="1000 to 10000 nM"
molecule="Cc1ccc(NC(=O)c2cncc(C(C)(C)C#N)c2)cc1-c1ccnc(-c2ccnc(NC(=O)C3CC3)c2)c1 [Example 105]" measurement="< 100 nM"
molecule="COC(=O)Nc1cc(-c2cncc(-c3cc(NC(=O)c4ccc(C(F)(F)F)nc4)ccc3C)c2)ccn1 [Example 74]" measurement="100 to 500 nM"
molecule="Cc1ccc(NC(=O)c2cc(C(F)(F)F)cnn2)cc1-c1cncc(-c2cc(NC=O)ncn2)c1 [Example 124]" measurement="< 100 nM"
molecule="Cc1ccc(NC(=O)c2cncc(C(C)(F)F)c2)cc1-c1cncc(-c2cc(NC(=O)C3CC3)ncn2)c1 [Example 109]" measurement="< 100 nM"
molecule="CCn1cc(-c2cc(-c3cc(NC(=O)c4cc(C(F)(F)F)cnn4)ccc3C)ccn2)cn1 [Example 115]" measurement="100 to 500 nM"

[ask] # lookup: IC50 of Cc1ccc(NC(=O)c2cnc(C(F)(F)F)nc2)cc1-c1ccnc(-c2ccnc(NC(=O)C3CC3)c2)c1 [Example 17]
[reply] 100 to 500 nM

[ask] Quick one: IC50 of Cc1ccc(NC(=O)c2cc(C#N)cnn2)cc1-c1cc(N[C@H](C)CO)nc(-c2cn[nH]c2)c1 [Example 152] ?
[reply] 100 to 500 nM

[ask] # query: IC50 of entry Cc1ccc(NC(=O)c2cc(C3CCC3)cnn2)cc1-c1ccnc(-c2ccnc(NC(=O)C3CC3)c2)c1 [Example 44]
[reply] < 100 nM

[ask] Given the molecule Cc1ccc(NC(=O)c2cnc(C(F)(F)F)cn2)cc1-c1ccnc(-c2ccnc(NC(=O)C3CC3)c2)c1 [Example 56] , what is its reported IC50?
[reply] 100 to 500 nM

[ask] Fill in the blank: the reported IC50 of Cc1ccc(NC(=O)c2cc(C(F)(F)F)cnn2)cc1-c1ccnc(-c2cnn(C)c2)c1 [Example 114] is ____.
[reply] 100 to 500 nM
